# Organism: Rattus norvegicus
# protocol: Open TG-GATES - Regimen: Single
# Format: toxicity, organism-based, Sprague-Dawley
# Set-up: regimen Single, gender Male, age 6 weeks
# measurement-parameters: in vivo, po, 0 mg/kg, 9 h, tissue Plasma, route gavage, dose level Control
measurement-label: gamma-GTP (IU/L)

- molecule: "CNCCC(Oc1ccc(C(F)(F)F)cc1)c1ccccc1.Cl (stereo unspecified) [FLUOXETINE HYDROCHLORIDE]"
  recorded-number: 0.4
- molecule: "COc1ccc(O)c(C(C)(C)C)c1.COc1ccc(O)cc1C(C)(C)C [BUTYLATED HYDROXYANISOLE]"
  recorded-number: 1.2
- molecule: "COc1ccc(Cl)cc1C(=O)NCCc1ccc(S(=O)(=O)NC(=O)NC2CCCCC2)cc1 [GLYBURIDE]"
  recorded-number: 1.6
- molecule: "S=C=Nc1cccc2ccccc12 [1-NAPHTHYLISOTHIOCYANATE]"
  recorded-number: 1
- molecule: "Cn1cnc([N+](=O)[O-])c1Sc1ncnc2nc[nH]c12 [AZATHIOPRINE]"
  recorded-number: 1
- molecule: "Cc1cccc(Nc2cc(Cl)nc(SCC(=O)O)n2)c1C [PIRINIXIC ACID]"
  recorded-number: 1
- molecule: "Cc1cnc(NC(=O)C2=C(O)c3ccccc3S(=O)(=O)N2C)s1 [MELOXICAM]"
  recorded-number: 1.2
- molecule: "O=C1NC(=O)C(c2ccccc2)(c2ccccc2)N1 [PHENYTOIN]"
  recorded-number: 1.6
- molecule: "O=C1CN(/N=C/c2ccc(-c3ccc([N+](=O)[O-])cc3)o2)C(O)=N1 [DANTROLENE]"
  recorded-number: 1.6
- molecule: "C=CCO [ALLYL ALCOHOL]"
  recorded-number: 1
- molecule: "CS(=O)(=O)Nc1ccc([N+](=O)[O-])cc1Oc1ccccc1 [NIMESULIDE]"
  recorded-number: 1.2

* * *

# Species on record: Rattus norvegicus
# protocol: Open TG-GATES - Regimen: Single
# Assay type: toxicity, organism-based, Sprague-Dawley
# Parameters: regimen Single, gender Male, age 6 weeks
# measurement-parameters: in vivo, po, 0 mg/kg, 3 h, tissue Blood, route gavage, dose level Control
measurement-label: WBC (x10_2/uL)

- compound: "CS(=O)(=O)Nc1ccc([N+](=O)[O-])cc1Oc1ccccc1 [NIMESULIDE]"
  measurement-label: "WBC"
  recorded-number: 89.8
- compound: "O=C1CN(/N=C/c2ccc(-c3ccc([N+](=O)[O-])cc3)o2)C(O)=N1 [DANTROLENE]"
  measurement-label: "WBC"
  recorded-number: 134.1
- compound: "Cc1cccc(Nc2cc(Cl)nc(SCC(=O)O)n2)c1C [PIRINIXIC ACID]"
  measurement-label: "WBC"
  recorded-number: 78.3
- compound: "S=C=Nc1cccc2ccccc12 [1-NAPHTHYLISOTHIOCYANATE]"
  measurement-label: "WBC"
  recorded-number: 101.9
- compound: "Cc1cnc(NC(=O)C2=C(O)c3ccccc3S(=O)(=O)N2C)s1 [MELOXICAM]"
  measurement-label: "WBC"
  recorded-number: 78.8
- compound: "CNCCC(Oc1ccc(C(F)(F)F)cc1)c1ccccc1.Cl (stereo unspecified) [FLUOXETINE HYDROCHLORIDE]"
  measurement-label: "WBC"
  recorded-number: 83.4
- compound: "C=CCO [ALLYL ALCOHOL]"
  measurement-label: "WBC"
  recorded-number: 82.7
- compound: "Cn1cnc([N+](=O)[O-])c1Sc1ncnc2nc[nH]c12 [AZATHIOPRINE]"
  measurement-label: "WBC"
  recorded-number: 98.5
- compound: "COc1ccc(Cl)cc1C(=O)NCCc1ccc(S(=O)(=O)NC(=O)NC2CCCCC2)cc1 [GLYBURIDE]"
  measurement-label: "WBC"
  recorded-number: 84.1
- compound: "COc1ccc(O)c(C(C)(C)C)c1.COc1ccc(O)cc1C(C)(C)C [BUTYLATED HYDROXYANISOLE]"
  measurement-label: "WBC"
  recorded-number: 93.2
- compound: "O=C1NC(=O)C(c2ccccc2)(c2ccccc2)N1 [PHENYTOIN]"
  measurement-label: "WBC"
  recorded-number: 81.2
